Molecular target: T1, natural Fel d1 (Indoor Biotech, #NA-FD1-2) (cat, UniProt P30438 23-92; P30440 18-109)
T1 construct: Bought natural heterodimeric glycoprotein, chains linked by disulfide bonds; also called nFel d1; nFel d 1
T1 sequence (P30438 other isoform, or with tags, fused parts or gaps, chain 1 of 2): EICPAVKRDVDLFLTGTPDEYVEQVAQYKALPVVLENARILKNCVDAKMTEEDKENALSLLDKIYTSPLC
T1 sequence (P30440 18-109, chain 2 of 2): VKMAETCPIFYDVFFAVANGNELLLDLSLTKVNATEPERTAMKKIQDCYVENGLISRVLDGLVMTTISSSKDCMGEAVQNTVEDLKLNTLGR
Assay: SPR (Biacore), mAb captured, natural Fel d1 injected, 25 C;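 note: rate constants obtained by fitting association and dissociation phases to a one-to-one binding model, with Kd and half-life derived from those rate constants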
Parameter Kd: see the listing below.
# output: bare number, implied unit nM

Example entries begin here.
* H1M1230N (antibody, V domains shown, chimeric: human variable domains, mouse constant domains (H1M prefix, mouse Fc)) VH: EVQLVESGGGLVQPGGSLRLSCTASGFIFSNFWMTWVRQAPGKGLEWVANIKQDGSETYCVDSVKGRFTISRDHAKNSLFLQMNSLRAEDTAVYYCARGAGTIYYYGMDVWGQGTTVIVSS VL: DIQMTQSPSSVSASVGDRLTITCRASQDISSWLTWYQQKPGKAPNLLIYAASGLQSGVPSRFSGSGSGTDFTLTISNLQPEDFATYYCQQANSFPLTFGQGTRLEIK | 3.37
* H1M1241N (antibody, V domains shown, chimeric: human variable domains, mouse constant domains (H1M prefix, mouse Fc)) VH: EVQLVESGGGLVKPGGSLRLSCAASGFTFSSYSMNWVRQAPGKGLEWVSSISSRSSYIYYADSVKGRFTISRDNAKNSLYLQMNSLRAEDTAVYYCARDHIVVVPGASYYYYGMDVWGQGTTVTVSS VL: DIQMTQSPSSLSASVGDRVTITCRASQGIRNDLGWYQQKPGKAPKRLISAASSLQSGVPSRFSGSGSGTEFTLTISSLQPEDFATYYCLQHNSYPLTFGGGTKVEIK | 3.63

QUERY: Suppose we examine the binder H2M1242N (antibody, mouse IgG2, V domains shown, chimeric: human variable domains, mouse IgG2 Fc (H2M prefix)) VH: EVQLVESGGGLVRPGGSLRLSCAASGFTFTSYAMNWVRQAPGKGLEWVSSISSYSSYIYIADSVKGRFTLSRDNAKNSLYLQMHSLRPEDTAVYFCAREGYSAYSYFDFWGRGTLVTVSS VL: DIQMTQSPSTLSASVGDRVTITCRASQSVISWLAWYQQKPGKAPKLLIHRASSLESGVPSRFSGSGSGTEFTLTISGLQPDDFATYYCQQYNTYFPTFGQGTKVEVK ; what Kd value has been reported?
RESULT: 3.14

Source: patent US20220025029A1
